Tested on: T-47D breast
procedureSummary: NCI tumour cell line growth inhibition, 48 h; in the data active = GI50 below about 0.43 µM; inactive = the rest
Labels: YES for active, NO for inactive

[[record]]
compound = "CC1CN=C(c2cccc(-c3ccc(-c4ccccc4)o3)c2)N1 (stereo unspecified)"
discretelabel = "NO"

[[record]]
compound = "C=C1C(C(O)C[C@H](C)C2O[C@@]3(CCCCO3)CCC2C)O[C@@H]2CCC3(CCC(/C=C/[C@@H](C)C4CC(C)=CC5(O4)O[C@H](C[C@](C)(O)C(=O)O)CCC5O)O3)OC2[C@@H]1O (stereo partly specified)"
discretelabel = "YES"

[[record]]
compound = "COc1ccc2c(c1)C(=O)c1c-2c(=O)n(CCCCCCC(=O)NO)c2ccccc12"
discretelabel = "YES"

[[record]]
compound = "Cc1oc2nc[nH]c(=O)c2c1C(=O)/C=C/c1ccc(Br)cc1"
discretelabel = "NO"

[[record]]
compound = "COc1ccc(-c2cn(-c3cccc(C(=O)/C=C/c4cc(OC)c(OC)c(OC)c4)c3)c(=O)[nH]2)cc1"
discretelabel = "NO"

[[record]]
compound = "CN1C(=O)C23CC4(C56CC78SSC(CO)(C(=O)N7C5Nc5ccccc56)N(C)C8=O)c5ccccc5NC4N2C(=O)C1(CO)SS3 (stereo unspecified)"
discretelabel = "YES"


###

System: MDA-N
procedureSummary: NCI tumour cell line growth inhibition, 48 h
experimentalReadout: TGI

[[record]]
compound = "Cc1cn(C2OC(CO)C(O)C2O)c(=O)[nH]c1=O (stereo not given)"
assayvalue = "> 1000 µM"

[[record]]
compound = "c1ccc([P+](c2ccccc2)(c2ccccc2)c2ccc([P+](c3ccccc3)(c3ccccc3)c3ccccc3)c3ccccc23)cc1"
assayvalue = "> 100 µM"

[[record]]
compound = "CN(CCCN(C)Cc1ccc(Cl)c(Cl)c1)CCN1CCCC1"
assayvalue = "15.8 µM"

[[record]]
compound = "CCNC(=O)OCC1C2=C(C(=O)C(C)=C(N)C2=O)N2CC3C(N3C)C12OC (stereo not given)"
assayvalue = "> 100 µM"

[[record]]
compound = "CSc1cc(Cl)c(C)cc1S(=O)(=O)NC(=O)Nc1ccc(Cl)cc1"
assayvalue = "> 100 µM"

[[record]]
compound = "CC(=O)OCC12C(OC(C)=O)C(=O)C3C(OC(C)=O)C14OC3(C)COC(=O)c1cccnc1C(C)C(C)C(=O)OC(C(OC(C)=O)C2OC(C)=O)C4(C)O (stereo not given)"
assayvalue = "> 100 µM"

[[record]]
compound = "O=C(O)CCC[C@]1(O)O[C@@]2(CCCC2=O)[C@]2(O)CCC[C@@]21O"
assayvalue = "> 100 µM"

[[record]]
compound = "CCOP(=O)(OCC)/C(C#N)=C/c1nccn1C"
assayvalue = "> 100 µM"

[[record]]
compound = "S=C1Cc2cc3ccccc3nc2-c2ccccc2N1"
assayvalue = "> 100 µM"

[[record]]
compound = "COc1ccc(NC=O)c(C(=O)CCNC(C)=O)c1"
assayvalue = "> 100 µM"


###

Each entry below carries its recorded TGI.
Test system: SNB-78 CNS
procedureSummary: NCI tumour cell line growth inhibition, 48 h
experimentalReadout: TGI

[[record]]
molecule = "CC/C=C/c1cc2c(c3[nH]ccc13)[C@@H](C)CC2C (some centres undefined) (tested in a mixture with another compound)"
assayvalue = "32.3 µM"

[[record]]
molecule = "COC(=O)C1C(O)C(C)C(O)C(C)(O)/C=C/C=C(C)C(=O)Nc2c(C)c(OC(C)=O)c3c(c2O)C(=O)C(C)=C2OCOC(=C23)C(C)=CC(C)(O)C(O)C(C)C1OC(C)=O (centres undefined)"
assayvalue = "91.2 µM"

[[record]]
molecule = "C/C(=C1/N=C(c2cc([N+](=O)[O-])ccc2Cl)N(c2ccc(Br)cc2)C1=O)c1cc2ccccc2oc1=O"
assayvalue = "> 100 µM"

[[record]]
molecule = "CCCCCCCCCCCCCC(=S)N/C=C/OC"
assayvalue = "> 100 µM"

[[record]]
molecule = "Cc1nc2c(nc1C)C(=O)C1=C(C2=O)C2C=CC1CC2"
assayvalue = "10.6 µM"

[[record]]
molecule = "O=C(/C=C/c1ccccc1O)c1cccs1"
assayvalue = "> 100 µM"

[[record]]
molecule = "CCCC12Cc3c(OC)ccc(OC)c3CC(Cc3c(OC)ccc(OC)c31)C2=O (centres undefined)"
assayvalue = "> 100 µM"

[[record]]
molecule = "S=c1nc(COc2ccc(Cl)cc2)[nH][nH]1"
assayvalue = "> 100 µM"

[[record]]
molecule = "CN(C)C(=S)/N=c1\\ss/c(=N\\C(=S)N(C)C)n1C1CCCCC1"
assayvalue = "> 100 µM"

[[record]]
molecule = "O=C1CCC[C@]2(CCCC(=O)N2)C1"
assayvalue = "> 100 µM"

[[record]]
molecule = "CC(C)CC(=O)[O-].CC(C)CC(=O)[O-].N.N.N.N.[Co+3].[O-][Cl+3]([O-])([O-])O.[O-][Cl+3]([O-])([O-])[O-]"
assayvalue = "> 100 µM"

[[record]]
molecule = "COC(=O)CC(=O)OC"
assayvalue = "> 100 µM"

[[record]]
molecule = "C/C(=C\\COc1ccc2ccc(=O)oc2c1)C1=CC(=O)C(C)(C)O1"
assayvalue = "61.3 µM"

[[record]]
molecule = "O=C1C=C(Nc2cccnc2)c2ccccc2C1=O"
assayvalue = "38 µM"


###

Measured TGI by item
System: K-562 leukemia
procedureSummary: NCI tumour cell line growth inhibition, 48 h
experimentalReadout: TGI

[[record]]
molecule = "O=C(O)CCC[C@]1(O)O[C@@]2(CCCC2=O)[C@]2(O)CCC[C@@]21O"
assayvalue = "> 100 µM"

[[record]]
molecule = "CC(=O)O[C@H](C[C@@H](C)[C@H]1C(=O)[C@H](O)[C@@]2(C)C3CC[C@H]4C(C)(C)[C@@H](OC5OCC(O)C(O)C5O)CC[C@@]45C[C@@]35CC[C@]12C)[C@@H]1OC1(C)C (stereo not given in full)"
assayvalue = "15.3 µM"

[[record]]
molecule = "CN1C(=O)C23CC4(C56CC78SSC(CO)(C(=O)N7C5Nc5ccccc56)N(C)C8=O)c5ccccc5NC4N2C(=O)C1(CO)SS3 (stereo not given)"
assayvalue = "3.64 µM"

[[record]]
molecule = "COc1ccc2cc(C(=O)NCCCNC(=O)c3ccc4c(OC)c(OC)ccc4c3)ccc2c1OC"
assayvalue = "> 100 µM"

[[record]]
molecule = "CCN(CC)CCN1CCc2c([nH]c3ccccc23)C1c1cccnc1 (stereo not given)"
assayvalue = "> 100 µM"

[[record]]
molecule = "COC1OC(Cn2c(C)nc(Br)c2Br)C(O)C(O)C1O (stereo not given)"
assayvalue = "> 100 µM"

[[record]]
molecule = "Nc1nc2c(ncn2C2C=CC(COS(N)(=O)=O)C2)c(=O)[nH]1 (stereo not given)"
assayvalue = "> 100 µM"

[[record]]
molecule = "N=c1c2ccccc2nc2oc3ccccc3n12"
assayvalue = "> 100 µM"

[[record]]
molecule = "O=C(/C=C/c1ccccc1O)c1cccs1"
assayvalue = "> 100 µM"

[[record]]
molecule = "COC(=O)[C@]1(C)CCC[C@]2(C)[C@H]3CC[C@]4(C(C)C)OO[C@@H](O4)[C@]34O[C@@H]4C[C@H]21"
assayvalue = "> 100 µM"

[[record]]
molecule = "C/C=C/CC(S(=O)(=O)c1ccccc1)S(=O)(=O)c1ccccc1"
assayvalue = "> 100 µM"

[[record]]
molecule = "CN(C)C(=S)/N=c1\\ss/c(=N\\C(=S)N(C)C)n1C1CCCCC1"
assayvalue = "> 100 µM"

[[record]]
molecule = "CC12C=C[C@]3(CC[C@@H]4[C@@](C)(CO)CCC[C@]4(C)C3CC1)C2 (stereo not given in full)"
assayvalue = "37.5 µM"

[[record]]
molecule = "O=C(O)C1(Cc2ccccc2)Cc2ccccc2C1"
assayvalue = "> 100 µM"

[[record]]
molecule = "Clc1ccc(Cc2nc3cc(Cl)ccc3o2)cc1"
assayvalue = "> 100 µM"

[[record]]
molecule = "c1ccc(-c2cccc(-c3ccccn3)n2)nc1"
assayvalue = "> 100 µM"

[[record]]
molecule = "CCC(C)C1=NC(C(=O)N/C=C\\c2c[nH]c3cc(Br)c(Br)cc23)(C(C)C)NC1=O (stereo not given)"
assayvalue = "35.8 µM"

[[record]]
molecule = "COC(=O)[C@@H](C)C[C@H](Cc1ccccc1)NC(=O)c1nc([C@@H](C[C@H](C(C)C)N(C)C(=O)[C@@H](NC(=O)[C@H]2CCCCN2C)C(C)C)OC(C)=O)sc1C(C)C"
assayvalue = "5.43 µM"

[[record]]
molecule = "S=C1Cc2cc3ccccc3nc2-c2ccccc2N1"
assayvalue = "> 100 µM"

[[record]]
molecule = "Cc1c(Cl)ccc2c1NC(=O)C2(O)CC(=O)c1cccc2ccccc12 (stereo not given)"
assayvalue = "> 100 µM"

